Molecular target: T1, P6-AA-12HAA-E
T1 chain: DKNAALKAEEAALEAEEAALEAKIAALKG
Test: two-hybrid library CCmax;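 note: natural log of median RNA to DNA barcode read ratio; higher means stronger binding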
Details: mean of both orientations
quantity measured: interaction score

These solved cases illustrate the format of a correct answer.
binder | interaction score
DENAALEAKVAALKAKVAALKAEIAALEG [P5-AA-12HAA-V] | 1.61
DENAALEAKKAALKAKKAALKAEIAALEG [P5-AA-12HAA-K] | -1.48
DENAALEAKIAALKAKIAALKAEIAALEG [4H1385-AA] | 2.36

I = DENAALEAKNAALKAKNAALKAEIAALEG [P5-AA-1HAA-N]
II = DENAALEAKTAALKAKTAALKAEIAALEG [P5-AA-12HAA-T]
Ask | Look at I and II . Which one has the lower recorded interaction score number? API: response body contains the label of the selected item.
Reply | II
(II: -1.36, I: -0.844)
